system: CEM cells HIV-1 protection, formazan growth assay; test: NCI AIDS Antiviral Assay
MEASUREMENT NAME: EC50

Examples with their reported EC50 follow.
{"COMPOUND": "[O-]c1on[n+](-c2ccccc2)c1-c1ccccc1", "EC50": "> 151 µM"}
{"COMPOUND": "O=C(O)c1cc(N=Nc2c(O)cc(O)cc2C(=O)O)ccc1/C=C/c1ccc(N=Nc2c(O)cc(O)cc2C(=O)O)cc1C(=O)O", "EC50": "87.1 µM"}
{"COMPOUND": "CN(C)c1ccc(-c2nnc3c(c(=O)n(C)c(=O)n3C)[n+]2[O-])cc1", "EC50": "> 200 µM"}
{"COMPOUND": "Brc1ccccc1CCc1ncc[nH]1", "EC50": "> 575 µM"}

Prompt: Specify measured EC50 for COc1ccc(C(=O)C(C(=O)CC(=O)Nc2cccc(C(F)(F)F)c2)c2ccc(OC)cc2)cc1 (stereo unspecified) .
Completion: > 14.8 µM

Prompt: Using the record for "Cc1nc2c(sc(=S)n2-c2ccccc2)c(=O)[nH]1" , state its measured EC50.
Completion: > 91.2 µM

Prompt: Quote EC50 reported for "CC(=Nc1ccncc1)C(C)=Nc1ccncc1" please.
Completion: 20.9 µM

Prompt: Query EC50 for "O=S(=O)(O)c1cc(Cl)c(O)c2ncc(Cl)cc12"
Completion: > 200 µM

Prompt: Given "Cc1ccc(/C=N/Nc2ncccn2)s1" , respond with its EC50.
Completion: > 200 µM

Prompt: Report EC50, nothing else, for this compound: "CC(C)c1ccc(S(=O)(=O)c2ccc([N+](=O)[O-])cc2[N+](=O)[O-])cc1"
Completion: > 200 µM

Prompt: Complete the entry with EC50 for "O=C(O)CC[n+]1ccccc1"
Completion: > 200 µM
